experiment-notes: Stability of the compound in methanol/HEPES buffer at pH 7.8 at 40 degC for 24 hrs by HPLC analysis
Format: physicochemical
experimental-conditions: read-out: Stability
# maps each entry to its remaining at 24 h
Numbers only here, please. The scale is %.

Problem: Requested field: remaining at 24 h. Item: O=C(OCCCc1cccnc1)[C@@H]1CCCCN1S(=O)(=O)Cc1ccccc1
Solution: 99

Problem: Requested field: remaining at 24 h. Item: O=C(OCCOC(=O)[C@@H]1CCCCN1S(=O)(=O)Cc1ccccc1)c1cccnc1
Solution: 40

// below: remaining at 24 h requested for another compound
Problem: Requested field: remaining at 24 h. Item: COc1cc(CCCOC(=O)[C@@H]2CCCCN2S(=O)(=O)Cc2ccccc2)cc(OC)c1OC
Solution: 99
